Reference source for all entries: patent EP3057951B1

Target: wild type human RORγt LBD (Homo sapiens, UniProt P51449)
Construct: expressed in transfected cells; host or cells: HEK293T
Sequence (P51449 258-518): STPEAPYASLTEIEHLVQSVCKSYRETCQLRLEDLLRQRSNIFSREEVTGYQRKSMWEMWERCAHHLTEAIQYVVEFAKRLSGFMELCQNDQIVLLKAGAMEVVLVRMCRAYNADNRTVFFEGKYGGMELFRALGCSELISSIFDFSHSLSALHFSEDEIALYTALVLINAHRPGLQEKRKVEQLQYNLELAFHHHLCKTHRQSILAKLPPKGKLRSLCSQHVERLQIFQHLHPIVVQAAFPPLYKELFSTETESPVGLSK
Test: RORγt (LBD) Reporter Assay (GAL4-luciferase, HEK293T cells)
Format: cell-based
Conditions: HEK293T cells
Readings of IC50 for the listed molecules
reported property: IC50 (nM)

# molecule, measurement target, unit symbol, reported relation, obs value
data = [
    ("Cn1cncc1C(O)(c1ccc(Cl)cc1)c1ccc2nc(Cl)c(Cc3ccc(C(F)(F)F)cc3)c(Cl)c2c1 (stereo not drawn)", "wild type human RORγt LBD (Homo sapiens, UniProt P51449)", "nM", "=", 160),
    ("Cc1ccc(C(O)(c2ccc3nc(N4CCC4)c(Cc4ccc(-n5cccn5)cc4)c(Cl)c3c2)c2cnnn2C)c(C)n1 (stereo not drawn) [Example 141a]", "wild type human RORγt LBD (Homo sapiens, UniProt P51449)", "nM", ">", 6000),
    ("COC1CN(c2nc3ccc(C(O)(c4ccc(C(F)(F)F)nc4)c4cncn4C)cc3c(Cl)c2Cc2ccc(-n3cccn3)cc2)C1 (single isomer, unassigned) [Example 133b]", "wild type human RORγt LBD (Homo sapiens, UniProt P51449)", "nM", "=", 840),
    ("Cn1cncc1C(O)(c1ccc(Cl)cc1)c1ccc2nc(N3CCC3)c(Cc3ccc(-n4cccn4)cc3)c(Cl)c2c1 (single isomer, unassigned) [Example 138c]", "wild type human RORγt LBD (Homo sapiens, UniProt P51449)", "nM", "=", 75),
    ("COC1CN(c2nc3ccc(C(O)(c4ccc(C(F)(F)F)nc4)c4cncn4C)cc3c(Cl)c2Cc2ccc(-n3cccn3)cc2)C1 (single isomer, unassigned) [Example 133c]", "wild type human RORγt LBD (Homo sapiens, UniProt P51449)", "nM", "=", 1200),
]

====

Target: wild type human RORγt LBD (Homo sapiens)
Construct: expressed in transfected cells; host or cells: HEK293T
Experiment: RORγt (LBD) Reporter Assay (GAL4-luciferase, HEK293T cells)
Format: cell-based
Details: HEK-293T, read-out: RORγt (LBD) Reporter Assay, % inhibition @ 6 µM, 6 µM compound concentration; HEK293T cells
reported property: inhibition at 6 µM (%)

# compound, obs value
measured = [
    ("Cc1ccc(C(O)(c2ccc3nc(N4CCC4)c(Cc4ccc(C(F)(F)F)cc4)c(Cl)c3c2)c2cnnn2C)c(C)n1 (stereo not shown) [Example 140a]", 99),
    ("Cn1cncc1C(O)(c1ccc(C(F)(F)F)nc1)c1ccc2nc(N3CCCC3)c(Cc3ccc(-n4cccn4)cc3)c(Cl)c2c1 (single isomer, unassigned) [Example 145b]", 102),
    ("Cn1cncc1C(O)(c1ccc(C(F)(F)F)nc1)c1ccc2nc(N3CC(F)(F)C3)c(Cc3ccc(-n4cccn4)cc3)c(Cl)c2c1 (stereo not shown) [Example 135a]", 97),
    ("Cc1cc(C(O)(c2ccc(C(F)(F)F)nc2)c2cncn2C)cc2c(Cl)c(Cc3ccc(-n4cccn4)cc3)c(N3CCC3)nc12 (single isomer, unassigned) [Example 137b]", 93),
    ("COc1nc2ccc(C(c3ccc(C)nc3C)(c3cnnn3C)N(C)C)cc2c(Cl)c1Cc1ccc(C(F)(F)F)cc1 (single isomer, unassigned) [Example 122b]", 98),
    ("Cn1cncc1C(O)(c1ccc(C(F)(F)F)nc1)c1ccc2nc(N3CC(O)C3)c(Cc3ccc(-n4cccn4)cc3)c(Cl)c2c1 (single isomer, unassigned) [Example 134b]", 101),
    ("COc1nc2ccc(C(O)(c3cnnn3C)C3CN(C(=O)OC(C)(C)C)C3)cc2c(Cl)c1Cc1ccc(C(F)(F)F)cc1 (stereo not shown)", 101),
    ("COc1ccc(C(O)(c2cccnc2)c2ccc3nc(OC)c(Cc4ccc(-n5cccn5)cc4)c(Cl)c3c2)cc1OC (single isomer, unassigned) [Example 159b]", 107),
    ("CON(C)c1nc2ccc(C(O)(c3ccc(C(F)(F)F)nc3)c3cncn3C)cc2c(N(C)OC)c1Cc1ccc(-n2cccn2)cc1 (stereo not shown)", 110),
    ("Cc1ccc(C(O)(c2ccc3nc(NC4CC4)c(Cc4ccc(C(F)(F)F)cc4)c(Cl)c3c2)c2cnnn2C)c(C)n1 (single isomer, unassigned) [Example 143b]", 93),
    ("COc1nc2ccc(C(O)(c3ccc(C)nc3C)C3CN(C(=O)OC(C)(C)C)C3)cc2c(Cl)c1Cc1ccc(C(F)(F)F)cc1 (stereo not shown)", 100),
    ("Cn1cncc1C(O)(c1ccc(Cl)cc1)c1ccc2nc(N3CCC3)c(Cc3ccc(-n4cccn4)cc3)c(Cl)c2c1 (single isomer, unassigned) [Example 138b]", 101),
    ("Cn1cncc1C(O)(c1ccc2nc(Cl)c(Cc3ccc(-n4cccn4)cc3)c(Cl)c2c1)c1ncccn1 (stereo not shown)", 94),
    ("COc1nc2ccc(C(O)(c3cccnc3)c3ccc(Cl)c(Cl)c3)cc2c(Cl)c1Cc1ccc(-n2cccn2)cc1 (stereo not shown) [Example 161a]", 96),
    ("Cc1cc(C(O)(c2ccc(Cl)cc2)c2cncn2C)cc2c(Cl)c(Cc3ccc(-n4cccn4)cc3)c(N3CCC3)nc12 (stereo not shown) [Example 136a]", 94),
    ("Cn1cncc1C(O)(c1ccc(C(F)(F)F)nc1)c1ccc2nc(-n3cccn3)c(Cc3ccccc3)c(C#N)c2c1 (single isomer, unassigned) [Example 114b]", 86),
    ("COc1nc2ccc(C(O)(c3ccc(F)cc3)c3cncn3C)cc2c(Cl)c1Cc1ccc(-n2cccn2)cc1 (stereo not shown) [Example 160a]", 112),
    ("Cn1cncc1C(O)(c1ccc(Cl)cc1)c1ccc2nc(N3CCC3)c(Cc3ccc(-n4cccn4)cc3)c(Cl)c2c1 (stereo not shown) [Example 138a]", 98),
    ("Cn1cncc1C(O)(c1ccc(C(F)(F)F)nc1)c1ccc2nc(-c3nccn3C)c(Cc3ccccc3)c(C#N)c2c1 (stereo not shown)", 44),
    ("CN(C)c1nc2ccc(C(O)(c3ccc(C(F)(F)F)nc3)c3cncn3C)cc2c(Cl)c1Cc1ccc(-n2cccn2)cc1 (stereo not shown)", 108),
    ("Cc1cc(C(O)(c2ccc(C(F)(F)F)nc2)c2cncn2C)cc2c(Cl)c(Cc3ccc(-n4cccn4)cc3)c(N3CCC3)nc12 (stereo not shown) [Example 137a]", 97),
    ("Cc1ccc(C(O)(c2ccc3nc(N4CCC4)c(Cc4ccc(-n5cccn5)cc4)c(Cl)c3c2)c2cnnn2C)c(C)n1 (stereo not shown) [Example 141a]", 42),
]

====

Biological target: wild type human RORγt ligand binding domain (RORyt LBD) (Homo sapiens, UniProt P51449)
Construct: His-tag (N); TurboTEV protease cleavage site (ENLYFQG) (N)
Assay: RORγt ThermoFluor assay (thermal shift, binding affinity KD)
reported property: log10 of Kd (log10 of the value in nM)

# compound, log10 of Kd
data = [
    ("CC(=O)N1CCC(C(O)(c2ccccc2)c2ccc3nc(Cl)c(Cc4cncnc4)c(OC(F)F)c3c2)CC1 (single isomer, unassigned) [Example 73b]", 1.64),
    ("COc1nc2ccc(C(O)(c3ccccc3)C3CCN(C(C)=O)CC3)cc2c(Cl)c1Cc1ccc(-n2cncn2)cc1 (stereo not drawn) [Example 18a]", 1.15),
    ("COc1nc2ccc(C(O)(c3sc(C)nc3C)c3cnnn3C)cc2c(Cl)c1Cc1ccc(-n2cccn2)cc1 (single isomer, unassigned) [Example 21b]", 1.34),
    ("COc1nc2ccc(C(O)(c3cnnn3C)C3CNC3)cc2c(Cl)c1Cc1ccc(C(F)(F)F)cc1 (stereo not drawn) [Example 124]", 2.38),
    ("COc1nc2ccc(C(O)(c3ccc(C#N)cc3)c3cncn3C)cc2c(Cl)c1Cc1ccc(C(F)(F)F)nc1 (stereo not drawn) [Example 38a]", 1.74),
    ("Cn1cc(-c2nc3ccc(C(O)(c4ccc(C(F)(F)F)nc4)c4cncn4C)cc3c(Cl)c2Cc2ccccc2)cn1 (single isomer, unassigned) [Example 111b]", 3.15),
    ("Cc1cc(C(O)(c2ccc(Cl)cc2)c2cncn2C)cc2c(Cl)c(Cc3ccc(-n4cccn4)cc3)c(N3CCC3)nc12 (stereo not drawn) [Example 136a]", 2.18),
    ("Cc1ccc(C(O)(c2ccc3nc(C)c(Cc4ccc(C(F)(F)F)cc4)c(Cl)c3c2)c2cnnn2C)c(C)n1 (single isomer, unassigned) [Example 28b]", 2.20),
    ("Cc1ccc(C(O)(c2ccc3nc(Cl)c(Cc4ccc(C(F)(F)F)cc4)c(NC4CC4)c3c2)c2cnnn2C)c(C)n1 (single isomer, unassigned) [Example 144b]", 3.36),
    ("COc1ccc(C(O)(c2cccnc2)c2ccc3nc(OC)c(Cc4ccc(-n5cccn5)cc4)c(Cl)c3c2)cc1OC (single isomer, unassigned) [Example 159c]", 1.15),
    ("COc1nc2ccc(C(O)(c3ccc(C)nc3C)c3cnnn3C)cc2c(Cl)c1Cc1ccc(-n2cncn2)cc1 (single isomer, unassigned) [Example 22c]", 0.30),
    ("COc1nc2ccc(C(O)(c3ccc(C)nc3C)c3cncn3C)cc2c(Cl)c1Cc1ccc(C(F)(F)F)cc1 (racemic) [Example 88a]", -0.52),
]
